target-system: Cannabinoid receptor 2 (Homo sapiens, UniProt P34972)
protocol-text: Agonist activity at human CB2R expressed in CHO cells assessed as reduction in forskolin-induced cAMP accumulation at 1 uM by beta-galactosidase based complementation immunoassay
Parameters: reference not given here
Sequence (P34972 whole entry, looked up): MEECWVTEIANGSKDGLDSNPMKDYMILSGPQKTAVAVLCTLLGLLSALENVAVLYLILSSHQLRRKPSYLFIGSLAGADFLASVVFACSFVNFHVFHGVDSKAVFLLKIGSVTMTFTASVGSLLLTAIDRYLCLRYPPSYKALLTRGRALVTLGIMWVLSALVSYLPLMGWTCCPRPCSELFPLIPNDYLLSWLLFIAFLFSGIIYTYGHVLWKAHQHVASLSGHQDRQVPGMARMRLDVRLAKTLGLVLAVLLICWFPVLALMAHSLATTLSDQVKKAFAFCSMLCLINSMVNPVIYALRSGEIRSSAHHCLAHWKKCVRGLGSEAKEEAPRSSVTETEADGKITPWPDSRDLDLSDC
readout: Activity (%)

CCCCCCSC1=C(C#N)C(c2cccc(Cl)c2)NC(=O)N1 (centres undefined) : 105
CCCCCSc1nnc2c(n1)[nH]c1ccccc12 : 86.2
CCCCCCSc1nnc2c(n1)[nH]c1ccccc12 : 102
CCCCCSc1nnc2c3ccccc3n(C)c2n1 : 129
CCCCCCSC1=C(C#N)C(c2ccc(Cl)cc2)NC(=O)N1 (centres undefined) : 108

A. CCCCCCSC1=C(C#N)C(c2ccc(F)cc2)NC(=O)N1 (centres undefined)
B. CCCCCCSC1=C(C#N)C(c2cccc([N+](=O)[O-])c2)NC(=O)N1 (centres undefined)
Input: Hi, I'm comparing two records. Which one has the lower Activity, A or B ? Mark your answer with the label of the selected entry.
Output: B

###

pKi: −log10 of the molar value.
Here we list compounds with their recorded pKi when tested on Cannabinoid receptor 1 (Homo sapiens).
Sequence (P21554 whole entry): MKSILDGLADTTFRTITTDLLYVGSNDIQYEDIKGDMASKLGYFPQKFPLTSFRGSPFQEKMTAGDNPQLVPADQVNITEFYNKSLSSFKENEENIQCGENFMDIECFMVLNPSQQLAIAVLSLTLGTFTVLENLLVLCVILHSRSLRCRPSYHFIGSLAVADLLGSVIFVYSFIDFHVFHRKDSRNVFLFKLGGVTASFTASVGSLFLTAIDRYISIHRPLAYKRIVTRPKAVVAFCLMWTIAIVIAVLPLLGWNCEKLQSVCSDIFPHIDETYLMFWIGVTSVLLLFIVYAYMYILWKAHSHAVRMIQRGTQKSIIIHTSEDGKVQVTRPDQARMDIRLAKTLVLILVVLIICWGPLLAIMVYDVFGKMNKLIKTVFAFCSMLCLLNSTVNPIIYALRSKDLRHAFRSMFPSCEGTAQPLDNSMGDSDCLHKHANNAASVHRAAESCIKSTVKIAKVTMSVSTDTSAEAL

Example cases with answers are listed next.
N#Cc1ccccc1CSc1nnc2c3ccccc3n(Cc3ccccc3[N+](=O)[O-])c2n1 : < 4.22
N#Cc1ccccc1CSc1nnc2c(n1)[nH]c1ccccc12 : < 4.22

Sample N#Cc1ccccc1CSc1nnc2c(n1)[nH]c1cccc(Br)c12 , system: Cannabinoid receptor 1 (Homo sapiens). Its pKi is 5.49

Sample COC(=O)CCC(=O)n1c2ccccc2c2nnc(SCc3ccccc3C#N)nc21 , system: Cannabinoid receptor 1 (Homo sapiens). Its pKi is < 4.22

Sample O=[N+]([O-])c1ccccc1CSc1nnc2c(n1)[nH]c1ccccc12 , system: Cannabinoid receptor 1 (Homo sapiens). Its pKi is < 4.22

Sample N#Cc1ccccc1CSc1nnc2c3ccccc3n(Cc3ccccc3)c2n1 , system: Cannabinoid receptor 1 (Homo sapiens). Its pKi is 7.21

Sample N#Cc1ccccc1CSc1nnc2c3ccccc3n(C(=O)c3ccccc3)c2n1 , system: Cannabinoid receptor 1 (Homo sapiens). Its pKi is < 5.00

###

Measured EC50 accompanies every entry in the list below.
target-system: Cannabinoid receptor 2 (Homo sapiens)
protocol-text: Agonist activity at human CB2R expressed in CHO cells assessed as reduction in forskolin-induced cAMP accumulation by beta-galactosidase based complementation immunoassay
Assay type: functional, cell-based
Sequence (P34972 whole entry): as the sequence (P34972 whole entry, looked up) above

Example cases with answers are listed next.
Cn1c2ccccc2c2nnc(SCc3ccccc3C#N)nc21 : > 3 µM
Clc1ccc(CSc2nnc3c(n2)[nH]c2ccccc23)cc1 : > 3 µM

Please fill in: EC50 reported for N#Cc1ccccc1CSc1nnc2c3ccccc3n(C(=O)c3ccc(F)cc3C(F)(F)F)c2n1 = > 3 µM

###

target-system: UniProtKB P21554
protocol-text: Displacement of [3H]CP55940 from human CB1R expressed in CHO cells
Type: cell-based
readout: Ki

N#Cc1ccccc1CSc1nnc2c3ccccc3n(C(=O)C3CCCCC3)c2n1 : > 60 µM

Sample N#Cc1ccccc1CSc1nnc2c3ccccc3n(C(=O)C3CCCC3)c2n1 , system: UniProtKB P21554. Its Ki is > 60 µM

Sample N#Cc1ccccc1CSc1nnc2c3ccccc3n(C(=O)c3ccc(OC(F)(F)F)cc3)c2n1 , system: UniProtKB P21554. Its Ki is > 60 µM
